system: Histoplasma capsulatum; test: Antifungal activity against Histoplasma capsulatum assessed as growth inhibition after 3 days by standard broth dilution technique; type: functional; conditions: 72 h
readout_kind: MIC (µg/mL)
Report only the number, with the unit µg/mL understood.

MIC reported for this compound CC[C@H]1O[C@@H](/C(C)=C/[C@H](C)/C=C/[C@H]2[C@@H](C)[C@@H]2/C=C/[C@@H]2O[C@H](CC(=O)OC)C/C(=N/O)[C@H]2O)CC=C1C : 0.78

MIC reported for this compound CC[C@H]1O[C@@H](/C(C)=C/[C@H](C)/C=C/[C@H]2[C@@H](C)[C@@H]2/C=C/[C@@H]2O[C@H](CCOC(C)=O)C[C@H](OC(C)=O)[C@H]2OC(C)=O)CC=C1C : 50

MIC reported for this compound CC[C@H]1O[C@@H](/C(C)=C/[C@H](C)/C=C/[C@H]2[C@@H](C)[C@@H]2/C=C/[C@@H]2O[C@H](CCO)C/C(=N\O)[C@H]2O)CC=C1C : 0.098

MIC reported for this compound CC[C@H]1O[C@@H](/C(C)=C/[C@H](C)/C=C/[C@H]2[C@@H](C)[C@@H]2/C=C/[C@@H]2O[C@H](CC(=O)OC)C[C@H](O)[C@H]2O)CC=C1C : 0.39

Origin of measurements: ChEMBL document CHEMBL3244163
